Test system: B. cereus
assay_protocol: Broth microdilution MIC/MBC, B. cereus
Type: cell-based
condition_set: Bacillus cereus, B. cereus BAG1X1-1 NR-28575; read-out: MBC
quantity_kind: MBC (µM)
Supply the numeric figure in µM, leaving out any unit text.

Recorded results for 3 molecules are shown here.
[
  {
    "molecule": "O=C(O)[C@H](Cc1ccccc1)N1C(=O)/C(=C/c2cccc(Cc3ccc(Cl)c(Cl)c3)c2)SC1=S [Rh 3]",
    "unit_tag": "µM",
    "MBC": 2
  },
  {
    "molecule": "O=C(O)[C@H](Cc1ccccc1)N1C(=O)/C(=C/c2cccc(Oc3ccc(Cl)c(Cl)c3)c2)SC1=S [Rh 1]",
    "unit_tag": "µM",
    "MBC": 2
  },
  {
    "molecule": "O=C(O)[C@H](Cc1ccccc1)N1C(=O)/C(=C/c2cccc(OC/C=C/c3ccc(Cl)c(Cl)c3)c2)SC1=S [Rh 6]",
    "unit_tag": "µM",
    "MBC": 4
  }
]

Task: Specify reported MBC for the molecule shown: O=C(O)[C@@H](Cc1ccccc1)N1C(=O)/C(=C/c2cccc(Oc3ccc(F)cc3)c2)SC1=S [Rh 4]
Result: 8

Task: Specify reported MBC for the molecule shown: O=C(O)[C@H](Cc1ccccc1)N1C(=O)/C(=C/c2cccc(-c3ccccc3)c2)SC1=S [Rh 5]
Result: 4

Task: Specify reported MBC for the molecule shown: CC(=O)NC[C@H]1CN(c2ccc(N3CCOCC3)c(F)c2)C(=O)O1 [Linezolid, linezolid, reference compound]
Result: 1

Task: Specify reported MBC for the molecule shown: O=C(O)[C@@H](Cc1ccccc1)N1C(=O)/C(=C/c2cccc(Cc3ccccc3)c2)SC1=S [Rh 7]
Result: 4

Task: Specify reported MBC for the molecule shown: O=C(O)[C@H](Cc1ccccc1)N1C(=O)/C(=C/c2cccc(-c3ccc(Cl)c(Cl)c3)c2)SC1=S [Rh 2]
Result: 2

----------
In this section, each of the molecules is paired with its reported MBC.
Test system: Vancomycin Resistant Staphylococcus aureus (VRSA)
assay_protocol: Broth microdilution MIC/MBC, VRSA
Type: cell-based
condition_set: VRSA, VRSA 8, read-out: MBC
Supply the numeric figure in µM, leaving out any unit text.

Recorded results for 3 molecules are shown here.
[
  {
    "molecule": "O=C(O)[C@@H](Cc1ccccc1)N1C(=O)/C(=C/c2cccc(Cc3ccccc3)c2)SC1=S [Rh 7]",
    "target_or_test_system": "Vancomycin Resistant Staphylococcus aureus (VRSA)",
    "MBC [µM]": 16
  },
  {
    "molecule": "O=C(O)[C@H](Cc1ccccc1)N1C(=O)/C(=C/c2cccc(-c3ccccc3)c2)SC1=S [Rh 5]",
    "target_or_test_system": "Vancomycin Resistant Staphylococcus aureus (VRSA)",
    "MBC [µM]": 16
  },
  {
    "molecule": "O=C(O)[C@H](Cc1ccccc1)N1C(=O)/C(=C/c2cccc(-c3ccc(Cl)c(Cl)c3)c2)SC1=S [Rh 2]",
    "target_or_test_system": "Vancomycin Resistant Staphylococcus aureus (VRSA)",
    "MBC [µM]": 8
  }
]

Let us examine a further case.
Task: Specify reported MBC for the molecule shown: O=C(O)[C@H](Cc1ccccc1)N1C(=O)/C(=C/c2cccc(Oc3ccc(Cl)c(Cl)c3)c2)SC1=S [Rh 1]
Result: 32

Source: paper PMC5053523
